# experiment.description: in vivo
# cond: mouse, ip, LD50, intraperitoneal, once a day, 7 days, mice
experimental.readout: LD50

Item: `c1ccc(-c2ccccn2)nc1` | LD50: 8 to 16 mg/kg

`c1ccc(-c2ccncc2)cc1` has a reported LD50 of > 16 mg/kg

Record `Clc1cccnc1` , field LD50: 8 to 16 mg/kg

// recorded LD50 for `CCC1(CC)CO[Se](=O)OC1` : > 16 mg/kg

LD50 measured on `Cn1cncc1Br` = > 16 mg/kg

The molecule identified as `N#Cc1cccnc1` registered its LD50 at 8 to 16 mg/kg

Note to self: LD50 recorded for O=[Se](OC1C2CCC(C2)C1Cl)OC1C2CCC(C2)C1Cl (centres unmarked) was 8 to 16 mg/kg

Sample `Cc1ccccn1` ; LD50 observed: 8 to 16 mg/kg

Form field LD50, entry `c1ccncc1` : 8 to 16 mg/kg

The molecule listed as O=[Se](OC1CCCCC1Cl)OC1CCCCC1Cl (centres unmarked) shows LD50 equal to 8 to 16 mg/kg

Form field LD50, entry `CC(C)(Cl)CO[Se](=O)OCC(C)(C)Cl` : 8 to 16 mg/kg

Data point: `Fc1cccnc1` ; LD50 = 8 to 16 mg/kg

LD50 in this record for O=[Se](OCC(Cl)c1ccccc1)OCC(Cl)c1ccccc1 (centres unmarked) : > 16 mg/kg

The measured LD50 associated with CCCCCCC(Cl)CO[Se](=O)OCC(Cl)CCCCCC (centres unmarked) reads 8 to 16 mg/kg

Sample `O=P(c1ccccc1)(c1ccccc1)c1ccccc1` ; LD50 observed: > 16 mg/kg

Form field LD50, entry CCC1CO[Se](=O)O1 (centres unmarked) : > 8 mg/kg

Record `Cn1c(=O)c2c(ncn2Cc2ccccc2)n(C)c1=O` . Reported LD50: > 16 mg/kg

Please fill in: LD50 reported for CC(Cl)C(C)O[Se](=O)OC(C)C(C)Cl (centres unmarked) = 8 to 16 mg/kg

# LD50 (molecule: `c1ccc(-c2cccnc2)cc1` ) is > 16 mg/kg

Notebook: `CC(C)c1ccncc1` , LD50 read as 8 to 16 mg/kg

Values from patent US4824955A
